Measured pIC50, listed per entry for reference.
target: α4β7 integrin (Homo sapiens (Human), UniProt P13612+P26010)
Sequence (P26010 20-798, one chain of several): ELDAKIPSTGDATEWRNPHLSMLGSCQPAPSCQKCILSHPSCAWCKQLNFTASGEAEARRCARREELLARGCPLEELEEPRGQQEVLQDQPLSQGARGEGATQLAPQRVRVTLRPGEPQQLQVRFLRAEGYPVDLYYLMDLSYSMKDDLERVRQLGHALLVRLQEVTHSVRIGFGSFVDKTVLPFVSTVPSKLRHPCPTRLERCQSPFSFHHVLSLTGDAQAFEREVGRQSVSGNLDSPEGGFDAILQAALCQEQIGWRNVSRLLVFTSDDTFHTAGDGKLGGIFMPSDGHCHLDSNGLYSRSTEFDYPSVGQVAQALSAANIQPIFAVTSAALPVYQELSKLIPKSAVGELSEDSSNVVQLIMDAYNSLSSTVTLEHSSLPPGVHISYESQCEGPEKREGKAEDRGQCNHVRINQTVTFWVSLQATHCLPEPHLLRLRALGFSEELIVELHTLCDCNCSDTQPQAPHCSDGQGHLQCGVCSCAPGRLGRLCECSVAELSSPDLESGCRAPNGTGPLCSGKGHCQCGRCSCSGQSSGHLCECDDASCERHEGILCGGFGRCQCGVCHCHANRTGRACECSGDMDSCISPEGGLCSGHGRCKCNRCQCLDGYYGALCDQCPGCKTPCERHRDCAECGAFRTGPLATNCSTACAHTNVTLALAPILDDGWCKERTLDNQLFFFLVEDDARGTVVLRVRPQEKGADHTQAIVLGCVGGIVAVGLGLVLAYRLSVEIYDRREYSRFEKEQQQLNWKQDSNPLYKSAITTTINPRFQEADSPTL
measurement notes: Integrin Adhesion Assay: Protocol 1 (MAdCAM-coated plate, RPMI-8866 cells, CellTiter GLO readout)
Format: cell-based
pIC50: −log10 of the molar value.

INSERT INTO assay_data (compound, result) VALUES
  ('Cn1c(=O)c(-c2cccc3c(C[C@H](NC(=O)c4c(F)cccc4C(F)(F)F)C(=O)O)cccc23)c(C(F)(F)F)c2ccccc21 [Compound 443]', '6.00 to 7.00');

Return reported pIC50; argument: Cn1c(=O)c(-c2cccc3c(C[C@H](NC(=O)c4c(F)cc(NC5COC5)cc4F)C(=O)O)cccc23)c(C(F)(F)F)c2ccccc21 [Compound 378]
7.00 to 8.00

Another compound to look at: Cc1cccc(C)c1-c1cc(F)c(C(=O)N[C@@H](Cc2cccc3c(-c4c(C(F)(F)F)c5ccccc5n(C)c4=O)cccc23)C(=O)O)c(F)c1 [Compound 304]
< 6.00

Another compound to look at: Cc1[nH]c2ccccc2c1-c1cc(F)c(C(=O)N[C@@H](Cc2cccc3c(-c4c(C(F)(F)F)c5ccccc5n(C)c4=O)cccc23)C(=O)O)c(F)c1 [Compound 327]
6.00 to 7.00

Another compound to look at: Cc1c(C(=O)N[C@@H](Cc2cccc3c(-c4c(C(F)(F)F)c5ccccc5n(C)c4=O)cccc23)C(=O)O)nn2ccccc12 [Compound 329]
< 6.00

Another compound to look at: Cn1c(=O)c(-c2cccc3c(C[C@H](NC(=O)c4c(F)ccc(C(F)(F)F)c4F)C(=O)O)cccc23)c(C(F)(F)F)c2ccccc21 [Compound 461]
6.00 to 7.00

====

target: α4β1 integrin (Homo sapiens (Human), UniProt P05556+P13612)
Sequence (P13612 34-1032): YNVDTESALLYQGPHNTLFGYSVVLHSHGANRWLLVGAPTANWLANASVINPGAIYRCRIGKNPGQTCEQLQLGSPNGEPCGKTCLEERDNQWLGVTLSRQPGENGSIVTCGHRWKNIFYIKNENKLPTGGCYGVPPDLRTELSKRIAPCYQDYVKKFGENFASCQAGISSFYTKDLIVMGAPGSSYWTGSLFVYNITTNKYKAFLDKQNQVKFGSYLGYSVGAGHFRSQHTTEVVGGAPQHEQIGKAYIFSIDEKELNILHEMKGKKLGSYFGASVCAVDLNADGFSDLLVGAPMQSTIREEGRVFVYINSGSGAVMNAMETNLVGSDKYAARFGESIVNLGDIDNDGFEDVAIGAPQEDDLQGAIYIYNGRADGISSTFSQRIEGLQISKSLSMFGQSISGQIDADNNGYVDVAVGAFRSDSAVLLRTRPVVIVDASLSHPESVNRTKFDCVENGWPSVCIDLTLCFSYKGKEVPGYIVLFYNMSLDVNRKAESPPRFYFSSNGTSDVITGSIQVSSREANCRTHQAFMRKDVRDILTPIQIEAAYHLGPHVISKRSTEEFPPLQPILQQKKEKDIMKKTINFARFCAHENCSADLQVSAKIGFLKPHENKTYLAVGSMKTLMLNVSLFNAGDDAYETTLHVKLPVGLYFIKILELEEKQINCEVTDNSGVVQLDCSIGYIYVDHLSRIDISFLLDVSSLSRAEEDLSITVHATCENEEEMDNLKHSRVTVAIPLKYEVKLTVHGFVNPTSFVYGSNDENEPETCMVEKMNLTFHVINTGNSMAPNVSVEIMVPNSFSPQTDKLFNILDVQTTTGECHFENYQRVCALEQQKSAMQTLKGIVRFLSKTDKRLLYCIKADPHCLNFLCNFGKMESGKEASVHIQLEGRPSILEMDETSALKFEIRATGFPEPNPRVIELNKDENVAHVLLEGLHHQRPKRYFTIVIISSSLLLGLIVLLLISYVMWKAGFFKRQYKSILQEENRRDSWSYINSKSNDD
Sequence (P05556 21-798): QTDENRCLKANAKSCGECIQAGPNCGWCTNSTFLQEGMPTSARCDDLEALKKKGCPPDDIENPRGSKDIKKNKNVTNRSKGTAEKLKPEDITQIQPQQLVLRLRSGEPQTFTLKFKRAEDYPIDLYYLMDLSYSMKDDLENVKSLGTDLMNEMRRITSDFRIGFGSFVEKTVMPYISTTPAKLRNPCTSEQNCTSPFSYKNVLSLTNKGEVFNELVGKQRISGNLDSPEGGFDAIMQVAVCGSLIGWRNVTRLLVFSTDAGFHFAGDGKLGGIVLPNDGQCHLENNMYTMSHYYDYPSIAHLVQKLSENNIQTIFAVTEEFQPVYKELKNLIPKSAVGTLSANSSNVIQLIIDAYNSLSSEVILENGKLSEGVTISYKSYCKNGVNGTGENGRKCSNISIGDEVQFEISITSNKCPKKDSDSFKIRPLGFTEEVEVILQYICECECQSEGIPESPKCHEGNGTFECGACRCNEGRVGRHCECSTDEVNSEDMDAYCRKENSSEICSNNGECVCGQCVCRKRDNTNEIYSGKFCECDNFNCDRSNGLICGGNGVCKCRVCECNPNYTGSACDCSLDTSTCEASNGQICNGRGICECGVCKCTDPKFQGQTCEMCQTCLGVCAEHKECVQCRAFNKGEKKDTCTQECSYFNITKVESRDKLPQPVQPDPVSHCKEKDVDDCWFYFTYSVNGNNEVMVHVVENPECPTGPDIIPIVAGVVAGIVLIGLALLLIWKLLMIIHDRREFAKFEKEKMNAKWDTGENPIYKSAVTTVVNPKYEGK
measurement notes: Integrin Adhesion Assay: Protocol 5 (VCAM-coated plate, RPMI-8866 cells with stable LOF mutation of the ITGB7 gene)
Assay type: cell-based
conditions used: Protocol 5; RPMI-8866 cells with LOF mutation of ITGB7, VCAM; read-out: Mean IC50 α4β1 KO
pIC50: −log10 of the molar value.
measured property: pIC50

// solved cases for pIC50 follow
INSERT INTO assay_data (compound_string, result) VALUES
  ('COc1ccc(CN2CCC(F)(F)CC2)c(C(F)(F)F)c1-c1cccc2c(C[C@H](NC(=O)C3(C(F)(F)F)CCN(CC(F)(F)F)CC3)C(=O)O)cccc12', '< 6.00'),
  ('COc1ccc2c(c1-c1cccc3c(C[C@H](NC(=O)c4c(C)cccc4F)C(=O)O)cccc13)CCN(CC(F)F)C2', '< 6.00');

Okay, next one:
Form field - read-out: pIC50; system: α4β1 integrin (Homo sapiens (Human), UniProt P05556+P13612); submitted item: Cc1cccc(F)c1C(=O)N[C@@H](Cc1cccc2c(-c3cccc4c3OCC4)cccc12)C(=O)O
< 6.00

====

target: α4β7 integrin (Homo sapiens (Human), UniProt P13612+P26010)
measurement notes: Integrin Adhesion Assay: Protocol 4 (MAdCAM-coated plate, RPMI-8866 cells with stable LOF mutation of the ITGB1 gene)
Format: cell-based
conditions used: Protocol 4; RPMI-8866 cells with LOF mutation of ITGB1, MAdCAM; read-out: Mean IC50 α4β7 KO
measured property: IC50

// solved cases for IC50 follow
INSERT INTO assay_data (compound, measured_property, result) VALUES
  ('COc1cccc(CN2CC3CCC(C2)O3)c1-c1cccc2c(C[C@H](NC(=O)c3c(C)cccc3F)C(=O)O)cccc12 [Compound 1028]', 'IC50', '10 to 100 nM'),
  ('CN1CCc2nc(-c3cccc4c(C[C@H](NC(=O)C5(C(F)(F)F)CCN(CC(F)(F)F)CC5)C(=O)O)cccc34)ccc2C1 [Compound 755]', 'IC50', '< 10 nM');

Return reported IC50; argument: COc1cncc(OC)c1-c1cccc2c(C[C@H](NC(=O)C3(C(F)(F)F)CCN(CC(F)(F)F)CC3)C(=O)O)cccc12 [Compound 734]
< 10 nM
